Entries annotated with measured melting point
Just the number please, in °C, no unit attached.

For orientation, consider the following solved cases.
In one line, give reported melting point of the entry Nn1c(SCc2cnc(Cl)s2)nnc1-c1ccc(F)c(Oc2ccccc2)c1 [Compound 2g] .
136

In one line, give reported melting point of the entry Fc1ccc(-c2n[nH]c(=S)n2/N=C/c2ccccc2)cc1Oc1ccccc1 [Compound 2a] .
189

In one line, give reported melting point of the entry CSc1nnc(-c2ccc(F)c(Oc3ccccc3)c2)n1N [Compound 2f] .
152

More entries:
In one line, give reported melting point of the entry Fc1ccc(-c2nn(CN3CCOCC3)c(=S)n2/N=C/c2ccc(Cl)cc2)cc1Oc1ccccc1 [Compound 2c] .
146

In one line, give reported melting point of the entry Fc1ccc(/C=N/n2c(-c3ccc(F)c(Oc4ccccc4)c3)n[nH]c2=S)cc1 [Compound 2d] .
172

In one line, give reported melting point of the entry C=CCSc1nnc(-c2ccc(F)c(Oc3ccccc3)c2)n1N [Compound 2h] .
128

In one line, give reported melting point of the entry Fc1ccc(-c2n[nH]c(=S)n2/N=C/c2ccc(Cl)cc2)cc1Oc1ccccc1 [Compound 2b] .
174

In one line, give reported melting point of the entry Fc1ccc(-c2n[nH]c(=S)n2/N=C/c2cccc(Oc3ccccc3)c2)cc1Oc1ccccc1 [Compound 2e] .
132
